Answer each item with its documented CC50 at 48 h.
assay-text: Cytotoxicity CPE assay (neutral red), HCT-8
Format: cell-based
experimental-conditions: human, HCT-8 cells, mean ± S.E.
Residues, ends and D or L forms follow the SMILES beside them.

Below, 2 compounds whose answers are already recorded.
[
  {
    "compound": "CC(C)C[C@H](NC(=O)OCc1ccccc1)C(=O)N[C@@H](C[C@@H]1CCNC1=O)C(O)S(=O)(=O)[O-].[Na+] (stereo partly drawn)",
    "CC50 at 48 h": "> 100 µM"
  },
  {
    "compound": "CSCC[C@@H](C=O)NC(=O)[C@H](CC(C)C)NC(=O)[C@H](CC(C)C)NC(C)=O [Calpain inhibitor II (61), Calpain inhibitor II] (Ac-Leu-Leu-Met-aldehyde)",
    "CC50 at 48 h": "> 100 µM"
  }
]

Input: Fill in: CC50 at 48 h of CCC[C@H](NC(=O)[C@H](CC(C)C)NC(=O)OCc1ccccc1)C(=O)C(=O)NCc1ccccn1 is ___
Output: 73.3 µM

* * *

assay-text: Cellular cytotoxicity in multiple cell lines
experimental-conditions: human, dog, African green monkey
Residues, ends and D or L forms follow the SMILES beside them.
assay-metric: CC50 at 48 h

Below, 2 compounds whose answers are already recorded.
[
  {
    "compound": "CCC[C@H](NC(=O)[C@H](CC(C)C)NC(=O)OCc1ccccc1)C(=O)C(=O)NCc1ccccn1",
    "assay-metric": "CC50 at 48 h",
    "experimental-value": "> 50 µM"
  },
  {
    "compound": "CC(C)C[C@H](NC(=O)OCc1ccccc1)C(=O)N[C@@H](C[C@@H]1CCNC1=O)C(O)S(=O)(=O)[O-].[Na+] (stereo partly drawn)",
    "assay-metric": "CC50 at 48 h",
    "experimental-value": "> 100 µM"
  }
]

Now look at this one.
Input: Fill in: CC50 at 48 h of CSCC[C@@H](C=O)NC(=O)[C@H](CC(C)C)NC(=O)[C@H](CC(C)C)NC(C)=O [Calpain inhibitor II (61), Calpain inhibitor II] (Ac-Leu-Leu-Met-aldehyde) is ___
Output: > 100 µM

* * *

Answer each item with its documented CC50.
assay-text: in vitro
Residues, ends and D or L forms follow the SMILES beside them. *: point of attachment. Cbz = O=C(OCc1ccccc1)*

Below, 3 molecules whose answers are already recorded.
[
  {
    "molecule": "CC(C)C[C@H](NC(=O)OCc1ccccc1)C(=O)N[C@@H](C[C@@H]1CCNC1=O)C(O)S(=O)(=O)[O-].[Na+] (stereo partly shown)",
    "assay-metric": "CC50",
    "experimental-value": "> 100 µM"
  },
  {
    "molecule": "CC(C)C[C@@H](C=O)NC(=O)[C@H](CC(C)C)NC(=O)[C@H](CC(C)C)NC(=O)OCc1ccccc1 [MG-132 (43), MG-132] (Cbz-Leu-Leu-Leu-aldehyde)",
    "assay-metric": "CC50",
    "experimental-value": "> 0.7 µM"
  },
  {
    "molecule": "CC(C)(C)NC(=O)N[C@H](C(=O)N1C[C@H]2[C@@H]([C@H]1C(=O)NC(CC1CCC1)C(=O)C(N)=O)C2(C)C)C(C)(C)C (stereo partly shown)",
    "assay-metric": "CC50",
    "experimental-value": "> 47 µM"
  }
]

Now look at this one.
Input: Fill in: CC50 of CSCC[C@@H](C=O)NC(=O)[C@H](CC(C)C)NC(=O)[C@H](CC(C)C)NC(C)=O [Calpain inhibitor II (61), Calpain inhibitor II] (Ac-Leu-Leu-Met-aldehyde) is ___
Output: > 100 µM

Origin of the recorded values: patent US12715896B2
